Target: Polyunsaturated fatty acid 5-lipoxygenase (Rattus norvegicus)
Sequence (P12527 whole entry): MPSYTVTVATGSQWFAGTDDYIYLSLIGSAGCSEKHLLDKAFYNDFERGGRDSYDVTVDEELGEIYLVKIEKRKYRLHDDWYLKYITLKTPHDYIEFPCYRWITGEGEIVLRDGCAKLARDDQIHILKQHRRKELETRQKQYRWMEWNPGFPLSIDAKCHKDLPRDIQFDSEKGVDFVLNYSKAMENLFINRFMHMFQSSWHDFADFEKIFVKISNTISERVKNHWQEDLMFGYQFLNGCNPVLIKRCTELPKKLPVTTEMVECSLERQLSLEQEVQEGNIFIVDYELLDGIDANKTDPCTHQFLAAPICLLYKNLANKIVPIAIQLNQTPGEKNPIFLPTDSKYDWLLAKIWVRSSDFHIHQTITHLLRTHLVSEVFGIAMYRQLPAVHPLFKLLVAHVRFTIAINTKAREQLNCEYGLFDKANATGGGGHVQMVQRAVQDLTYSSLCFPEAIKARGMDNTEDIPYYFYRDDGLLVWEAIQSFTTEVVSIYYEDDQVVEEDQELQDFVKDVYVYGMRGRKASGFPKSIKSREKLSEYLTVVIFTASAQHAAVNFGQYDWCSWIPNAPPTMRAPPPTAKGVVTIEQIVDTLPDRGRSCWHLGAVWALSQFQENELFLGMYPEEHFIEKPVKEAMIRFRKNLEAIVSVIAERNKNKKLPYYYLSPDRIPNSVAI
Assay: Inhibition of 5-lipoxygenase in rat RBL-1 cells
pIC50: −log10 of the molar value.
readout-type: pIC50

Sample CCCCCCCC/C=C\C/C=C\C=C\SCCCC(=O)OC — what was its pIC50? 5.21

a: CCCCCCCCCCC/C=C\C=C\SCCCC(=O)OC
b: CCCCCCCC/C=C\C/C=C\C=C\SCCCC(=O)O
Which of the two items, a and b , has the greater recorded pIC50? Write down the label attached to your selection. b
